Each item that follows carries a reported viability, T/C.
- Test system: 138582-337-R-J1-PDC complex spheroid viability
- TEST_METHOD_NOTES: Anticancer human tumor 138582-337-R-J1-PDC patient-derived Merkel cell tumor cell line growth inhibition
- COND: second compound 0.1 µM; first compound 0.316 µM; hits give low values
// note: answer is a bare numeric in %

Param item: O=C(c1cc(Cc2n[nH]c(=O)c3ccccc23)ccc1F)N1CCN(C(=O)C2CC2)CC1 + NC1CCC(NC2CC2c2ccccc2)CC1 ; param system: 138582-337-R-J1-PDC complex spheroid viability; output viability, T/C: 86.7

Param item: O=C(c1cc(Cc2n[nH]c(=O)c3ccccc23)ccc1F)N1CCN(C(=O)C2CC2)CC1 + NC1CC1c1ccc(-c2cccc(O)c2)cc1 ; param system: 138582-337-R-J1-PDC complex spheroid viability; output viability, T/C: 68.4

Param item: Nc1ncn(C2CC(O)C(CO)O2)c(=O)n1 (centres undefined) + NC1CCC(NC2CC2c2ccccc2)CC1 ; param system: 138582-337-R-J1-PDC complex spheroid viability; output viability, T/C: 95.4

Param item: COc1cc(Nc2ncc3c(n2)-c2ccc(Cl)cc2C(c2c(F)cccc2OC)=NC3)ccc1C(=O)O + NC1CCC(NC2CC2c2ccccc2)CC1 ; param system: 138582-337-R-J1-PDC complex spheroid viability; output viability, T/C: 93

* * *

Each item that follows carries a reported viability, T/C.
- Test system: 138582-337-R-J1-PDC complex spheroid viability
- TEST_METHOD_NOTES: Anticancer human tumor 138582-337-R-J1-PDC cell line growth inhibition;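 further: spheroids exposed to agents for 7 days; 100% = DMSO vehicle control viability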
- COND: second compound 10 µM; first compound 1 µM; hits give low values
// note: answer is a bare numeric in %

Answered examples (3):
- COMPOUND: "CC1(C)CCC(CN2CCN(c3ccc(C(=O)NS(=O)(=O)c4ccc(NCC5CCOCC5)c([N+](=O)[O-])c4)c(Oc4cnc5[nH]ccc5c4)c3)CC2)=C(c2ccc(Cl)cc2)C1 + NC1CC1c1ccc(-c2cccc(O)c2)cc1"
  VALUE_KIND: "viability, T/C"
  UOM: "%"
  MEASURED: 70.4
- COMPOUND: "Nc1ncn(C2CC(O)C(CO)O2)c(=O)n1 (centres undefined) + NC1CCC(NC2CC2c2ccccc2)CC1"
  VALUE_KIND: "viability, T/C"
  UOM: "%"
  MEASURED: 76.1
- COMPOUND: "Nc1ncn(C2CC(O)C(CO)O2)c(=O)n1 (centres undefined) + NC1CC1c1ccc(-c2cccc(O)c2)cc1"
  VALUE_KIND: "viability, T/C"
  UOM: "%"
  MEASURED: 88.4

Moving on to another compound below.
Value of viability, T/C reported for the compound CC(C)c1c(-c2ccccc2)nc2c(C#N)c[nH]n2c1=O + NC1CCC(NC2CC2c2ccccc2)CC1 is 88.2

* * *

Each item that follows carries a reported viability, T/C.
- Test system: 138582-337-R-J1-PDC complex spheroid viability
- TEST_METHOD_NOTES: Anticancer human tumor 138582-337-R-J1-PDC cell line growth inhibition;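 further: spheroids exposed to agents for 7 days; 100% = DMSO vehicle control viability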
- COND: second compound 0.316 µM; first compound 0.03 µM; hits give low values
// note: answer is a bare numeric in %

Answered examples (2):
- COMPOUND: "Nc1ncn(C2CC(O)C(CO)S2)c(=O)n1 (configuration not stated) + NC1CC1c1ccc(-c2cccc(O)c2)cc1"
  viability, T/C, %: 76.6
- COMPOUND: "Nc1ccccc1NC(=O)c1ccc(CNC(=O)OCc2cccnc2)cc1 + NC1CCC(NC2CC2c2ccccc2)CC1"
  viability, T/C, %: 76.8

Value of viability, T/C reported for the compound COc1cc(C2c3cc4c(cc3C(OC3OC5COC(C)OC5C(O)C3O)C3COC(=O)C23)OCO4)cc(OC)c1O (configuration not stated) + NC1CCC(NC2CC2c2ccccc2)CC1 is 76.3

Value of viability, T/C reported for the compound Nc1ccn(C2OC(CO)C(O)C2(F)F)c(=O)n1 (configuration not stated) + NC1CC1c1ccc(-c2cccc(O)c2)cc1 is 64.6

Value of viability, T/C reported for the compound Nc1ccn(C2OC(CO)C(O)C2(F)F)c(=O)n1 (configuration not stated) + NC1CCC(NC2CC2c2ccccc2)CC1 is 85.8

Value of viability, T/C reported for the compound COc1cc(C2c3cc4c(cc3C(OC3OC5COC(C)OC5C(O)C3O)C3COC(=O)C23)OCO4)cc(OC)c1O (configuration not stated) + NC1CC1c1ccc(-c2cccc(O)c2)cc1 is 69.8

Value of viability, T/C reported for the compound NS(=O)(=O)OCC1CC(n2ccc3c(NC4CCc5ccccc54)ncnc32)CC1O (configuration not stated) + NC1CC1c1ccc(-c2cccc(O)c2)cc1 is 59

Value of viability, T/C reported for the compound Nc1ncn(C2CC(O)C(CO)S2)c(=O)n1 (configuration not stated) + NC1CCC(NC2CC2c2ccccc2)CC1 is 95.4

Value of viability, T/C reported for the compound CCN(c1cc(-c2ccc(CN3CCOCC3)cc2)cc(C(=O)NCc2c(C)cc(C)[nH]c2=O)c1C)C1CCOCC1 + NC1CCC(NC2CC2c2ccccc2)CC1 is 101

Value of viability, T/C reported for the compound O=C(C=Cc1cccc(S(=O)(=O)Nc2ccccc2)c1)NO + NC1CC1c1ccc(-c2cccc(O)c2)cc1 is 53.2

Value of viability, T/C reported for the compound Nc1ccccc1NC(=O)c1ccc(CNC(=O)OCc2cccnc2)cc1 + NC1CC1c1ccc(-c2cccc(O)c2)cc1 is 76.6

Value of viability, T/C reported for the compound CCc1c2c(nc3ccc(O)cc13)-c1cc3c(c(=O)n1C2)COC(=O)[C@]3(O)CC + NC1CC1c1ccc(-c2cccc(O)c2)cc1 is 0.59

* * *

- System: 138582-337-R-J1-PDC complex spheroid viability
- TEST_METHOD_NOTES: Anticancer human tumor 138582-337-R-J1-PDC cell line growth inhibition;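 further: spheroids exposed to agents for 7 days; 100% = DMSO vehicle control viability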
- COND: second compound 0.1 µM; first compound 0.00316 µM; hits give low values
Okay, here is how we bin by viability, T/C: lower segment = under 70%, middle segment = from 70% up to 90%, upper segment = 90% and over

Worked cases, answers included:
- MOLECULE: "Nc1ncn(C2CC(O)C(CO)O2)c(=O)n1 (configuration not stated) + NC1CC1c1ccc(-c2cccc(O)c2)cc1"
  GROUP_LABEL: "middle segment"
- MOLECULE: "CC(C)CC(NC(=O)CNC(=O)c1cc(Cl)ccc1Cl)B1OC(=O)CC(CC(=O)O)(C(=O)O)O1 (configuration not stated) + NC1CC1c1ccc(-c2cccc(O)c2)cc1"
  GROUP_LABEL: "upper segment"
- MOLECULE: "CC[C@@]1(O)C(=O)OCc2c1cc1n(c2=O)Cc2cc3c(CN(C)C)c(O)ccc3nc2-1 + NC1CC1c1ccc(-c2cccc(O)c2)cc1"
  GROUP_LABEL: "lower segment"
- MOLECULE: "COc1cc(Nc2ncc3c(n2)-c2ccc(Cl)cc2C(c2c(F)cccc2OC)=NC3)ccc1C(=O)O + NC1CC1c1ccc(-c2cccc(O)c2)cc1"
  GROUP_LABEL: "lower segment"
- MOLECULE: "O=C(C=Cn1cnc(-c2cc(C(F)(F)F)cc(C(F)(F)F)c2)n1)NNc1cnccn1 + NC1CCC(NC2CC2c2ccccc2)CC1"
  GROUP_LABEL: "middle segment"

## Task Dear colleague, I would appreciate it if you could identify the bin for CC(C)CC(NC(=O)C(Cc1ccccc1)NC(=O)c1cnccn1)B(O)O (configuration not stated) + NC1CC1c1ccc(-c2cccc(O)c2)cc1 and reply at your convenience.
## Result lower segment

## Task Dear colleague, I would appreciate it if you could identify the bin for CC(C)CC(NC(=O)CNC(=O)c1cc(Cl)ccc1Cl)B1OC(=O)CC(CC(=O)O)(C(=O)O)O1 (configuration not stated) + NC1CCC(NC2CC2c2ccccc2)CC1 and reply at your convenience.
## Result upper segment

## Task Dear colleague, I would appreciate it if you could identify the bin for Cn1ncnc1C1c2n[nH]c(=O)c3cc(F)cc(c23)NC1c1ccc(F)cc1 (configuration not stated) + NC1CC1c1ccc(-c2cccc(O)c2)cc1 and reply at your convenience.
## Result middle segment

## Task Dear colleague, I would appreciate it if you could identify the bin for CC1COCCN1c1cc(-c2ccnn2C)c2ccnc(-c3ccn[nH]3)c2n1 (configuration not stated) + NC1CC1c1ccc(-c2cccc(O)c2)cc1 and reply at your convenience.
## Result lower segment

* * *

Each item that follows carries a reported viability, T/C.
- System: 138582-337-R-J1-PDC complex spheroid viability
- TEST_METHOD_NOTES: Anticancer human tumor 138582-337-R-J1-PDC cell line growth inhibition;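 further: spheroids exposed to agents for 7 days; 100% = DMSO vehicle control viability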
- COND: second compound 0.316 µM; first compound 0.1 µM; hits give low values

Answered examples (6):
- COMPOUND: "COc1ccc([C@@H](O)c2cc(-c3ncnc4cc(N5CCOCC5)ccc34)c(F)cc2Cl)nn1 + NC1CCC(NC2CC2c2ccccc2)CC1"
  MEASURED: "77.3%"
- COMPOUND: "Cn1ncnc1C1c2n[nH]c(=O)c3cc(F)cc(c23)NC1c1ccc(F)cc1 (configuration not stated) + NC1CCC(NC2CC2c2ccccc2)CC1"
  MEASURED: "105%"
- COMPOUND: "CC(C)c1c(-c2ccccc2)nc2c(C#N)c[nH]n2c1=O + NC1CC1c1ccc(-c2cccc(O)c2)cc1"
  MEASURED: "73.5%"
- COMPOUND: "CC1(C)CCC(CN2CCN(c3ccc(C(=O)NS(=O)(=O)c4ccc(NCC5CCOCC5)c([N+](=O)[O-])c4)c(Oc4cnc5[nH]ccc5c4)c3)CC2)=C(c2ccc(Cl)cc2)C1 + NC1CC1c1ccc(-c2cccc(O)c2)cc1"
  MEASURED: "63%"
- COMPOUND: "Nc1ncn(C2CC(O)C(CO)O2)c(=O)n1 (configuration not stated) + NC1CC1c1ccc(-c2cccc(O)c2)cc1"
  MEASURED: "85.7%"
- COMPOUND: "CC1COCCN1c1cc(-c2ccnn2C)c2ccnc(-c3ccn[nH]3)c2n1 (configuration not stated) + NC1CCC(NC2CC2c2ccccc2)CC1"
  MEASURED: "65%"

Moving on to another compound below.
Value of viability, T/C reported for the compound CC[C@@]1(O)C(=O)OCc2c1cc1n(c2=O)Cc2cc3c(CN(C)C)c(O)ccc3nc2-1 + NC1CC1c1ccc(-c2cccc(O)c2)cc1 is 75.9%
